Tested on: rodent lifetime carcinogenesis bioassay, tumor incidence TD50
Assay: carcinogenic potency in animals, long-term in vivo studies, CPDB compilation (AID 1745844)
Settings: rat; strain Fischer 344; females; in drinking water; site: liver; lesion: several types; types named in the paper; dosed 75 weeks; study length 120 weeks
Measure Name: TD50

Query block: # lookup: rodent lifetime carcinogenesis bioassay, tumor incidence TD50 TD50, key = O=NN(CCO)CC(O)CO (stereo unspecified)
Result block: 5.98 mg/kg/day

###

Test system: rodent lifetime carcinogenesis bioassay, tumor incidence TD50
Test: carcinogenic potency in animals, long-term in vivo studies, CPDB compilation (AID 1745844)
Settings: rat; strain F344/DuCrj; males; in feed; site: mammary gland; lesion: several types; types named in the paper; dosed 112 weeks; study length 112 weeks
Measure Name: TD50

Query block: Give the reported TD50 for this compound. "Cc1nc(N)cc2[nH]c3ccccc3c12"
Result block: 8.43 mg/kg/day

###

Test system: rodent lifetime carcinogenesis bioassay, tumor incidence TD50
Assay: carcinogenic potency in animals, long-term in vivo studies, CPDB compilation (AID 1745844)
Settings: hamster; strain Syrian Golden; females; by gavage; site: liver; lesion: cholangioadenoma; dosed 41 weeks; study length 75 weeks
Measure Name: TD50 (mg/kg/day)
// units = mg/kg/day; emit number, no label

Query block: Give the reported TD50 for this compound. CC(O)CN(CC(O)CO)N=O (stereo unspecified)
Result block: 32.6

###

System: rodent lifetime carcinogenesis bioassay, tumor incidence TD50
Test: carcinogenic potency in animals, long-term in vivo studies, CPDB compilation (AID 1745844)
Conditions: hamster; strain Syrian Golden; females; inhaled; site: skin; lesion: carcinoma; dosed 52 weeks; study length 104 weeks
Measure Name: TD50

Query block: Give the reported TD50 for this compound. "C=CCl"
Result block: 121 mg/kg/day

###

Tested on: rodent lifetime carcinogenesis bioassay, tumor incidence TD50
Assay: carcinogenic potency in animals, long-term in vivo studies, CPDB compilation (AID 1745844)
Conditions: mouse; strain B6C3F1; males; in feed; site: liver; lesion: hepatoblastoma + hepatocellular carcinoma; dosed 101 weeks; study length 103 weeks
Measure Name: TD50

Query block: Give the reported TD50 for this compound. "CCC1(c2ccccc2)C(=O)NCNC1=O"
Result block: 24.7 mg/kg/day

###

System: rodent lifetime carcinogenesis bioassay, tumor incidence TD50
Assay: carcinogenic potency in animals, long-term in vivo studies, CPDB compilation (AID 1745844)
Details: rat; strain Fischer 344; females; in drinking water; site: liver; lesion: malignant tumor; dosed 30 weeks; study length 130 weeks
Calls of active or inactive are those of the source. No rule for the calls is given here.
Measure Name: TD50

Query block: # lookup: rodent lifetime carcinogenesis bioassay, tumor incidence TD50 TD50, key = "O=NN(CC(F)(F)F)CC(F)(F)F"
Result block: 4.98 mg/kg/day (inactive)

###

System: rodent lifetime carcinogenesis bioassay, tumor incidence TD50
Experiment: carcinogenic potency in animals, long-term in vivo studies, CPDB compilation (AID 1745844)
Conditions: mouse; strain B6C3F1; females; oral dosing; site: lung; lesion: several types; types named in the paper; dosed 76 weeks; study length 76 weeks
Measure Name: TD50 (mg/kg/day)
// units = mg/kg/day; emit number, no label

Query block: Give the reported TD50 for this compound. "CCN(CC)C(=S)SSC(=S)N(CC)CC"
Result block: 138

###

Below is a list of entries, each paired with its recorded TD50 value.
Tested on: rodent lifetime carcinogenesis bioassay, tumor incidence TD50
Test: carcinogenic potency in animals, long-term in vivo studies, CPDB compilation (AID 1745844)
Conditions: rat; strain Fischer 344; males; in feed; site: liver; lesion: hepatocellular adenoma + hepatocellular carcinoma + neoplastic nodule; dosed 103 weeks; study length 104 weeks
// units = mg/kg/day; emit number, no label

- Compound: "CCOC(=O)CC(SP(=O)(OC)OC)C(=O)OCC (configuration not stated)"
  Tested On: "rodent lifetime carcinogenesis bioassay, tumor incidence TD50"
  Measure Name: "TD50"
  Experimental Value: 1560
- Compound: "Cc1c(N)cccc1N"
  Tested On: "rodent lifetime carcinogenesis bioassay, tumor incidence TD50"
  Measure Name: "TD50"
  Experimental Value: 117

Query block: # lookup: rodent lifetime carcinogenesis bioassay, tumor incidence TD50 TD50, key = "CN(C)C(=O)Nc1cccc(C(F)(F)F)c1"
Result block: 55.4

Query block: # lookup: rodent lifetime carcinogenesis bioassay, tumor incidence TD50 TD50, key = "Oc1ccc2ccccc2c1N=Nc1ccccc1"
Result block: 17.9

Query block: # lookup: rodent lifetime carcinogenesis bioassay, tumor incidence TD50 TD50, key = "CNc1ccc(N(CCO)CCO)cc1[N+](=O)[O-]"
Result block: 938

Query block: # lookup: rodent lifetime carcinogenesis bioassay, tumor incidence TD50 TD50, key = "Nc1ccc(/C=C/c2ccc(N)c(S(=O)(=O)O)c2)c(S(=O)(=O)O)c1"
Result block: 5020

Query block: # lookup: rodent lifetime carcinogenesis bioassay, tumor incidence TD50 TD50, key = "Cc1cc(N=Nc2c(O)ccc3ccccc23)c(S(=O)(=O)O)cc1Cl"
Result block: 357

###

Tested on: rodent lifetime carcinogenesis bioassay, tumor incidence TD50
Assay: carcinogenic potency in animals, long-term in vivo studies, CPDB compilation (AID 1745844)
Conditions: mouse; strain Charles River CD1; males; in feed; site: lung; lesion: bronchiolar adenoma; dosed 104 weeks; study length 104 weeks
Activity calls are given as the source filed them. No rule for the calls is given here.
Measure Name: TD50

Query block: # lookup: rodent lifetime carcinogenesis bioassay, tumor incidence TD50 TD50, key = "CCN(Cc1cccc(S(=O)(=O)O)c1)c1ccc(C(=C2C=CC(=[N+](CC)Cc3cccc(S(=O)(=O)O)c3)C=C2)c2ccccc2S(=O)(=O)[O-])cc1"
Result block: 91100 mg/kg/day (inactive)

###

Test system: rodent lifetime carcinogenesis bioassay, tumor incidence TD50
Assay: carcinogenic potency in animals, long-term in vivo studies, CPDB compilation (AID 1745844)
Conditions: rat; strain F344/DuCrj; females; in feed; site: adrenal gland; lesion: pheochromocytoma; dosed 104 weeks; study length 113 weeks
Measure Name: TD50 (mg/kg/day)
// units = mg/kg/day; emit number, no label

Query block: Give the reported TD50 for this compound. "S=c1nc[nH]c2nc[nH]c12"
Result block: 22.5

###

Test system: rodent lifetime carcinogenesis bioassay, tumor incidence TD50
Test: carcinogenic potency in animals, long-term in vivo studies, CPDB compilation (AID 1745844)
Conditions: mouse; strain Charles River CD1; males; in feed; site: liver; lesion: hemangioma; dosed 86 weeks; study length 86 weeks
Active and inactive are the calls of the source. How the calls were made is not given here.
Measure Name: TD50

Query block: Give the reported TD50 for this compound. "Cc1ccc2c(-c3ccccc3)nc(=O)n(C(C)C)c2c1"
Result block: 14000 mg/kg/day (inactive)

###

Tested on: rodent lifetime carcinogenesis bioassay, tumor incidence TD50
Experiment: carcinogenic potency in animals, long-term in vivo studies, CPDB compilation (AID 1745844)
Conditions: mouse; strain B6C3F1; males; by gavage; site: lung; lesion: alveolar/bronchiolar adenoma + alveolar/bronchiolar carcinoma; dosed 103 weeks; study length 104 weeks
Decide using TD50 alone. Strictly below 1000 mg/kg/day: Condition met. Equal to or above 1000 mg/kg/day: Condition not met.

Worked examples, 5 compounds total:
- Compound: "CC(I)C1OCC(CO)O1 (stereo not given)"
  Tested On: "rodent lifetime carcinogenesis bioassay, tumor incidence TD50"
  Class Assignment: "Condition not met"
- Compound: "O=P(O)(O)O"
  Tested On: "rodent lifetime carcinogenesis bioassay, tumor incidence TD50"
  Class Assignment: "Condition not met"
- Compound: "c1cc(OCC2CO2)cc(OCC2CO2)c1 (stereo not given)"
  Tested On: "rodent lifetime carcinogenesis bioassay, tumor incidence TD50"
  Class Assignment: "Condition not met"
- Compound: "CCCCCl"
  Tested On: "rodent lifetime carcinogenesis bioassay, tumor incidence TD50"
  Class Assignment: "Condition not met"
- Compound: "OCc1ccccc1"
  Tested On: "rodent lifetime carcinogenesis bioassay, tumor incidence TD50"
  Class Assignment: "Condition met"

Query block: State whether 1000 mg/kg/day exceeds TD50 recorded for C=CC1CC=CCC1 (stereo not given) .
Result block: Condition met

Query block: State whether 1000 mg/kg/day exceeds TD50 recorded for "Nc1ccc(O)c(N)c1" .
Result block: Condition met

Query block: State whether 1000 mg/kg/day exceeds TD50 recorded for "OC[P+](CO)(CO)CO" .
Result block: Condition met

Query block: State whether 1000 mg/kg/day exceeds TD50 recorded for "c1ccc2occc2c1" .
Result block: Condition met

###

Tested on: rodent lifetime carcinogenesis bioassay, tumor incidence TD50
Assay: carcinogenic potency in animals, long-term in vivo studies, CPDB compilation (AID 1745844)
Settings: mouse; strain DDD; females; in drinking water; site: liver; lesion: hepatocellular carcinoma; dosed 52 weeks; study length 52 weeks
Measure Name: TD50

Query block: # lookup: rodent lifetime carcinogenesis bioassay, tumor incidence TD50 TD50, key = "NC(=O)Cc1c([O-])on[n+]1Cc1ccccc1"
Result block: 22.6 mg/kg/day

###

Tested on: rodent lifetime carcinogenesis bioassay, tumor incidence TD50
Experiment: carcinogenic potency in animals, long-term in vivo studies, CPDB compilation (AID 1745844)
Details: mouse; strain B6C3F1; females; i.p.; site: all sites; lesion: lymphoma, histiocytic type; dosed 52 weeks; study length 86 weeks
Measure Name: TD50

Query block: Give the reported TD50 for this compound. CC(CN1CC(=O)NC(=O)C1)N1CC(=O)NC(=O)C1 (stereo unspecified)
Result block: 53.7 mg/kg/day
